system_name: Xanthine dehydrogenase/oxidase (Homo sapiens, UniProt P47989)
Sequence (P47989 whole entry): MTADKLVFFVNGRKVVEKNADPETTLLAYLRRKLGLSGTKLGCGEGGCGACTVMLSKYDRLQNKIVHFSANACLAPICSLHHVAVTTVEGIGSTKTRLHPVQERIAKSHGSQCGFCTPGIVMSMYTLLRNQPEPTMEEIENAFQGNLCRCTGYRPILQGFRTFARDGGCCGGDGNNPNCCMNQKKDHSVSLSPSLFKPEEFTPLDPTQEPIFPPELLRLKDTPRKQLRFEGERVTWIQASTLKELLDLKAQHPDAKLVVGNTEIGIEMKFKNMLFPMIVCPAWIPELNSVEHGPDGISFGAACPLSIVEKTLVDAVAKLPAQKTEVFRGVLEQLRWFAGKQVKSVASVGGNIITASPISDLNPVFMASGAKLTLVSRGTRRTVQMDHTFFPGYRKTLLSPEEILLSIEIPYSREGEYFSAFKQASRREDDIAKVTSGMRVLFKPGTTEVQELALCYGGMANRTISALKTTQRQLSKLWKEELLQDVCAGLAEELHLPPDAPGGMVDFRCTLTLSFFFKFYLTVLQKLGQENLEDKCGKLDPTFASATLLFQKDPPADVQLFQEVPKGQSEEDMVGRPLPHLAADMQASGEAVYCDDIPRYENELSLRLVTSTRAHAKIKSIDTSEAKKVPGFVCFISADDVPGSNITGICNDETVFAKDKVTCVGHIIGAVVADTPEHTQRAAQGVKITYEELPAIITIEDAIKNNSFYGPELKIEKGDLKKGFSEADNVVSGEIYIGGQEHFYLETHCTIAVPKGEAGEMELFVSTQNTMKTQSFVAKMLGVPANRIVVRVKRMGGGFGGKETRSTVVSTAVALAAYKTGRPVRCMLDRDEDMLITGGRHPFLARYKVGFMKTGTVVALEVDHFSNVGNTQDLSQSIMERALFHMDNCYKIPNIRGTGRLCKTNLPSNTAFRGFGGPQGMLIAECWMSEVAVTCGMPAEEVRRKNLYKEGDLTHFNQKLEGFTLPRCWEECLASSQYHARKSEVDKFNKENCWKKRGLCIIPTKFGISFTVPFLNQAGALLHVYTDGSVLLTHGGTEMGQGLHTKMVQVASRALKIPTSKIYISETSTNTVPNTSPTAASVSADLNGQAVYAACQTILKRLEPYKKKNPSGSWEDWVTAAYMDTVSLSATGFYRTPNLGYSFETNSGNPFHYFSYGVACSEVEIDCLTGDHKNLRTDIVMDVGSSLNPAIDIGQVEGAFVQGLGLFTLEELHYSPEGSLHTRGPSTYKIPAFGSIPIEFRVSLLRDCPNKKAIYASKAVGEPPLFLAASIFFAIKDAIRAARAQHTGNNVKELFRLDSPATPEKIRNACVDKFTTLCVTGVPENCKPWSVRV
assay: Inhibition of xanthine oxidase- mediated uric acid formation at 50 ug/mL after 5 mins by spectrophotometry
endpoint: inhibition at 50 µg/mL (%)

Here's what some known entries look like.
Fill in: inhibition at 50 µg/mL of COc1cc(O[C@@H]2O[C@H](CO)[C@@H](O)[C@H](O)[C@H]2O)ccc1Oc1ccc(O[C@@H]2O[C@H](CO)[C@@H](O)[C@H](O)[C@H]2O)c(OC)c1 [CINNACASOLIDE C] is ___
28.2

If you can, please state the reported inhibition at 50 µg/mL value of COc1cc(/C=C/C=O)ccc1O .
72.5

// query inhibition at 50 µg/mL value for entry OC/C=C/c1ccccc1O[C@@H]1O[C@H](CO[C@@H]2OC[C@](O)(CO)[C@H]2O)[C@@H](O)[C@H](O)[C@H]1O [CINNACASOLIDE B]
35.4

Could you share which inhibition at 50 µg/mL value was measured for O=C/C=C/c1ccccc1 ?
96.7

# get_value(readout='inhibition at 50 µg/mL', item= O[C@@H]1[C@@H](O)[C@@H](OC/C=C/c2ccccc2)O[C@H](CO[C@@H]2OC[C@H](O)[C@H](O)[C@H]2O)[C@H]1O )
18.7

Entry under review: O=C(O)/C=C/c1ccccc1 . Reported inhibition at 50 µg/mL?
93.4

Field request: inhibition at 50 µg/mL | item: O=C/C=C/c1ccccc1O [2-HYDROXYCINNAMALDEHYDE]
94.2

a: O=C(O)/C=C/c1ccccc1O
b: O=C(O)CCc1ccccc1O[C@@H]1O[C@H](CO)[C@@H](O)[C@H](O)[C@H]1O [DIHYDROMELILOTOSIDE]
Return label of the item with the larger inhibition at 50 µg/mL. Candidates: a , b . Give the chosen item's label as your response.
a
(a: 73.2%, b: 45.4%)

###

List of IC50 tested on Xanthine dehydrogenase/oxidase (Homo sapiens).
I only need the number, in µM, no unit after it.

Query (compound): O=C/C=C/c1ccccc1O [2-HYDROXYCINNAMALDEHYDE] ; field requested: IC50
98.5

Then there is this compound:
Can you share its IC50? I mean this compound: O=C/C=C/c1ccccc1
59

###

The following are reported pIC50 results, target or system Xanthine dehydrogenase/oxidase (Homo sapiens, UniProt P47989).
pIC50: −log10 of the molar value.

Please state recorded pIC50 (tested on Xanthine dehydrogenase/oxidase (Homo sapiens, UniProt P47989)) of COc1cc(O[C@@H]2O[C@H](CO)[C@@H](O)[C@H](O)[C@H]2O)ccc1Oc1ccc(O[C@@H]2O[C@H](CO)[C@@H](O)[C@H](O)[C@H]2O)c(OC)c1 [CINNACASOLIDE C]
< 4.07

Observed pIC50 on Xanthine dehydrogenase/oxidase (Homo sapiens, UniProt P47989) for O=C(O)CCc1ccccc1O[C@@H]1O[C@H](CO)[C@@H](O)[C@H](O)[C@H]1O [DIHYDROMELILOTOSIDE] , please.
< 3.82

Others:
# query: pIC50 | item OC/C=C/c1ccccc1 [CINNAMIC ALCOHOL] | system: Xanthine dehydrogenase/oxidase (Homo sapiens, UniProt P47989)
< 3.43

Attribution: ChEMBL document CHEMBL2046412
